Assay: qHTS Assay for Lipid Storage Modulators in Drosophila S3 Cells
Conditions: BODIPY lipid droplet fluorescence, 18-24 h, cells fed with added oleic acid; series mostly up to 46.1 µM
Out of some 320,000 compounds screened, about 2,100 (0.66%) were called active. Not shown: some 53% with an inconclusive outcome. Calls follow the shape of the dose curve; as a rule, active = well fitted inhibition curve with a large enough effect in the signal ratio, with a control signal flat (not every such curve was filed as active); inconclusive = small, poorly fitted or top-dose-only effect, or effect the other way, or a change in a side signal; inactive = flat fitted curve, though single readings scatter; the % refers to the signal ratio. The list comes from a sample in which actives are over-represented; it also holds close analogues and randomly drawn compounds.
Valid outcomes are listed here; reply with one: yes (1) for active, no (0) for inactive

Observe how each entry below is paired with its result.
COc1ccc(C(=O)NCC(=O)O)cc1; yes (1)
COc1ccc(OC)c(NC(=O)NCCc2cccc(Cl)c2)c1; no (0)
O=C(Cn1cnc([N+](=O)[O-])n1)NCCO; no (0)
COc1ccc(C(=O)NN)cc1; no (0)
CC(=O)c1ccc(S(=O)(=O)NC2CCSc3ccccc32)cc1 (stereo unspecified); no (0)
Nc1ccc2c(c1)C/C(=C/c1ccco1)C2=O; no (0)
O=C(NCc1ccccc1Cl)c1cnccc1C(F)(F)F; no (0)
COc1ccc(OC)c(NC(=O)CCN2CCN(Cc3ccccc3)CC2)c1; no (0)
CCCCNC(=O)COC(=O)c1c2c(nc3ccccc13)CCC2; yes (1)
COc1ccc(S(=O)(=O)CCC(=O)Nc2ccc(OC)cc2OC)cc1; no (0)

Exam item: What call does the record list for CC(CC(=O)O)CC1=NS(=O)(=O)c2ccccc2N1 (stereo unspecified) ?
Marked response: yes (1)
